The values you see were collected from paper PMC4666376.

TARGET DESC: PAI-1 wild type, active (human, UniProt P05121 24-402)
Sequence (P05121 24-402): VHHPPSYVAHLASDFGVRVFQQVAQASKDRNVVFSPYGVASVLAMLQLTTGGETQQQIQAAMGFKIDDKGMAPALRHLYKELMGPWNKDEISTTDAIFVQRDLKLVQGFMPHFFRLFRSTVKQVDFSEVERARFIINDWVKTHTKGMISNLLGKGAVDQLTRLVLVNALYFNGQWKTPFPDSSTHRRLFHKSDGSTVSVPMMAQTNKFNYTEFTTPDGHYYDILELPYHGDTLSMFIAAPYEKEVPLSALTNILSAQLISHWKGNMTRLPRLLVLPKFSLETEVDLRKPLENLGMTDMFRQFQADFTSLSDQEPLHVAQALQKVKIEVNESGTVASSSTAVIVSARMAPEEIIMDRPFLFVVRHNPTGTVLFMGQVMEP
PROCEDURE SUMMARY: branched SELEX with high-throughput sequencing; PAI-1 immobilised on polyclonal anti-PAI-1 antibody; HBS (10 mM HEPES pH 7.4, 140 mM NaCl), 2 mM MgCl2, 2 mM CaCl2, 0.1% BSA; RNA pool 100 nM; PAI-1 captured on antibody-coated wells; 45 min; binding temperature not stated (PAI-1 capture at room temperature); high values mean tight binding;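 note: Pool frequency after one selection round with this target divided by frequency before selection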
CONDITIONS: protein: recombinant; tags: N-terminal His6; structured_RNA; 2'-F pyrimidines

SEQUENCE: GGGGCCACCAACGACAUUACAUACCGUAGGGCAGAUCGCCUGACUAGUAAUACGUUGAUAUAAAUAGUGCCCAUGGAUC
binding signal, enrichment factor: 0.24

SEQUENCE: GGGGCCACCAACGACAUUCUGGCCGUAGGACAAUAGUCCGAUCCAGAUAUAGAGUUGAUAUAAAUAGUGCCCAUGGAUC
binding signal, enrichment factor: 0.54

SEQUENCE: GGGGCCACCAACGACAUUUUGAUCAACACAACGUAGGUCUAUGCGACCGAUAGUUGAUAUAAAUAGUGCCCAUGGAUC
binding signal, enrichment factor: 2.02

SEQUENCE: GGGGCCACCAACGACAUUGAGCUACGGCUAAGCCGCUAUAGUCUUCAGGAAUCGUUGAUAUAAAUAGUGCCCAUGGAUC
binding signal, enrichment factor: 0.33

====

TARGET DESC: PAI-1 wild type, active (human, UniProt P05121 24-402)
PROCEDURE SUMMARY: branched SELEX with high-throughput sequencing; PAI-1 immobilised on polyclonal anti-PAI-1 antibody; HBS (10 mM HEPES pH 7.4, 140 mM NaCl), 2 mM MgCl2, 2 mM CaCl2, 0.1% BSA; RNA pool 100 nM; PAI-1 captured on antibody-coated wells; 45 min; binding temperature not stated (PAI-1 capture at room temperature); high values mean tight binding;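 note: Pool frequency after one selection round with this target divided by frequency before selection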
CONDITIONS: protein: recombinant; tags: N-terminal His6; structured_RNA; 2'-F pyrimidines
Rule: measured binding signal below 1 enrichment factor gets criterion met; anything equal to or greater than 1 enrichment factor gets criterion not met.

SEQUENCE: GGGGCCACCAACGACAUUGACCAUGUAGGACUUAAAGUCUGACCACAAUGUGUGUUGAUAUAAAUAGUGCCCAUGGAUC
LABEL: criterion met
--
SEQUENCE: GGGGCCACCAACGACAUUGUCGUAGGCGUCAUAUUAUACUUACGCUGACCAAUGUUGAUAUAAAUAGUGCCCAUGGAUC
LABEL: criterion not met
--
SEQUENCE: GGGGCCACCAACGACAUUACGUAGGUAGCAUUUAUAUGCUUGACCGAUCAAUCGUUGAUAUAAAUAGUGCCCAUGGAUC
LABEL: criterion not met
--
SEQUENCE: GGGGCCACCAACGACAUUUGACAUCGUAGGCAAAAAAGCUGACUGUUCAGAUUGUUGAUAUAAAUAGUGCCCAUGGAUC
LABEL: criterion not met
--
SEQUENCE: GGGGCCACCAACGACAUUUGGACUGAAUCCAACCUUAUGCGUAAGCAUAGUUCGUUGAUAUAAAUAGUGCCCAUGGAUC
LABEL: criterion not met
--
SEQUENCE: GGGGCCACCAACGACAUUGACUAGACAUGAUGUUGCAUGUCACCAUGUAAAAUGUUGAUAUAAAUAGUGCCCAUGGAUC
LABEL: criterion met
--
SEQUENCE: GGGGCCACCAACGACAUUCACACAACGUAGGCUCGUGAGCCGAUCAGUGAUUAGUUGAUAUAAAUAGUGCCCAUGGAUC
LABEL: criterion met
